Test System: chimeric Caspase-9 polypeptide
Sequence (P62942 2-108 F37V limits assumed): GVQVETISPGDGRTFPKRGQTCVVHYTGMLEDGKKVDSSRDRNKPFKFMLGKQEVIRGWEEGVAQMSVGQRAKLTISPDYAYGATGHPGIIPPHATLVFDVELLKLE
Assay Text: Caspase-9 mutant classes and basal activity (Table 5)
Type: cell-based
Condition Context: Caspase-9 mutant class; ligand IC50 compared with unmodified chimeric Caspase-9
Test Readout: IC50

* N405Q-S196D (protein) GFGDVGALESLRGNADLAYILSMEPCGHCLIINNVNFCRESGLRTRTGSNIDCEKLRRRFSDLHFMVEVKGDLTAKKMVLALLELARQDHGALDCCVVVILSHGCQASHLQFPGAVYGTDGCPVSVEKIVNIFNGTSCPSLGGKPKLFFIQACGGEQKDHGFEVASTSPEDESPGSNPEPDATPFQEGLRTFDQLDAISSLPTPSDIFVSYSTFPGFVSWRDPKSGSWYVETLDDIFEQWAHSEDLQSLLLRVANAVSVKGIYKQMPGCFQFLRKKLFFKTSASRA | higher IC50
* D330A-N405Q (protein) GFGDVGALESLRGNADLAYILSMEPCGHCLIINNVNFCRESGLRTRTGSNIDCEKLRRRFSSLHFMVEVKGDLTAKKMVLALLELARQDHGALDCCVVVILSHGCQASHLQFPGAVYGTDGCPVSVEKIVNIFNGTSCPSLGGKPKLFFIQACGGEQKDHGFEVASTSPEDESPGSNPEPDATPFQEGLRTFDQLAAISSLPTPSDIFVSYSTFPGFVSWRDPKSGSWYVETLDDIFEQWAHSEDLQSLLLRVANAVSVKGIYKQMPGCFQFLRKKLFFKTSASRA | higher IC50
